Target: Kv7.1/KCNE1 (Homo sapiens)
Sequence (P51787 whole entry): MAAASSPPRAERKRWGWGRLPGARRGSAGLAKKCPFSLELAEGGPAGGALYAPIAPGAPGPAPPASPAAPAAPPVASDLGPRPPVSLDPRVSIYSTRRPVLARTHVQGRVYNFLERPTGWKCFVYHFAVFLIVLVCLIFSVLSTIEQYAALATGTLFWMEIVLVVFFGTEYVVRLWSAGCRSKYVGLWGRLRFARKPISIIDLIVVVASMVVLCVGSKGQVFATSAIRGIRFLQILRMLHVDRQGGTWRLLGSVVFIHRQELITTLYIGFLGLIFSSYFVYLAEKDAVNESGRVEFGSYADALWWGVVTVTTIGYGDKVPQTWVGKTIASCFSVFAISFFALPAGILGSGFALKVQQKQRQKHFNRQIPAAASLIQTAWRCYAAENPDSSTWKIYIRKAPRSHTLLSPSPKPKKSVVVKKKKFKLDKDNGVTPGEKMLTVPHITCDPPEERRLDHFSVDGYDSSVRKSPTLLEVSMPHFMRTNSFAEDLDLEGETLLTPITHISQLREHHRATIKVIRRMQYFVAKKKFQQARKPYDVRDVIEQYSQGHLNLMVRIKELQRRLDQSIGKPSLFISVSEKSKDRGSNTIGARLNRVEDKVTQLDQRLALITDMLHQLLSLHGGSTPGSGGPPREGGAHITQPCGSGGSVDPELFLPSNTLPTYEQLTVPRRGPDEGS
Assay: Two-electrode current recording of human KCNQ (Kv7) channels heterologously expressed in Xenopus laevis oocytes
pEC50: −log10 of the molar value.
experimentalReadout: pEC50

INSERT INTO results (substancesmiles, resultvalue) VALUES
  ('CC(=O)c1c(O)c(C)c(O)c(Cc2c(O)c3c(c(C(=O)/C=C/c4ccccc4)c2O)OC(C)(C)C=C3)c1O', 5.31);

----------
Biological target: Kv7.1 (Homo sapiens, UniProt P51787)
Sequence (P51787 whole entry): as above
Assay: Two-electrode current recording of human KCNQ (Kv7) channels heterologously expressed in Xenopus laevis oocytes
pEC50: −log10 of the molar value.
experimentalReadout: pEC50

INSERT INTO results (substancesmiles, resultvalue) VALUES
  ('CC(=O)c1c(O)c(C)c(O)c(Cc2c(O)c3c(c(C(=O)/C=C/c4ccccc4)c2O)OC(C)(C)C=C3)c1O', 5.83);

----------
Molecular target: Kv7.4 (Homo sapiens, UniProt P56696)
Sequence (P56696 whole entry): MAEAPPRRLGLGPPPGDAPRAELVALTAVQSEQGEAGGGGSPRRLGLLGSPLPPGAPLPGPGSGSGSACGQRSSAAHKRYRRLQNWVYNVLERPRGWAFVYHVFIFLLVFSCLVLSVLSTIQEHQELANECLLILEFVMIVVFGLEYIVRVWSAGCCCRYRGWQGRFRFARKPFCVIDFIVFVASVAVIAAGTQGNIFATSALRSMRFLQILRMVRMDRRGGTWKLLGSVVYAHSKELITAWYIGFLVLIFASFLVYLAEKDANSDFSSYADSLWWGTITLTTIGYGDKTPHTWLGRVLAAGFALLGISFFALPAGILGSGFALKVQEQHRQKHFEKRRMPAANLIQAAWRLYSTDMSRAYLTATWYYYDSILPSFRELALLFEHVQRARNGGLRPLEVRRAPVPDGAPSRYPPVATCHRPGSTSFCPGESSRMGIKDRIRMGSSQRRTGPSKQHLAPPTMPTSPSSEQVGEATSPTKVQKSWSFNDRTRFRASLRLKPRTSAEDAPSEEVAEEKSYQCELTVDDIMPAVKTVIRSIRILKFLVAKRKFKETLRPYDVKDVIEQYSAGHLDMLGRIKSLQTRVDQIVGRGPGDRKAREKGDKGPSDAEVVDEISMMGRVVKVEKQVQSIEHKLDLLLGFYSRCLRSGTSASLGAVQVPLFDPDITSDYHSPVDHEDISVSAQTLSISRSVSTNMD
Experiment: Two-electrode current recording of human KCNQ (Kv7) channels heterologously expressed in Xenopus laevis oocytes
pEC50: −log10 of the molar value.
experimentalReadout: pEC50

INSERT INTO measurements (compound, resultvalue) VALUES
  ('CC(=O)c1c(O)c(C)c(O)c(Cc2c(O)c3c(c(C(=O)/C=C/c4ccccc4)c2O)OC(C)(C)C=C3)c1O [rottlerin]', 6.83);
